System: Cabbage Looper (Trichoplusia ni, TRIPNI) ("CL")
Assay: Bioassays on CL, 128-well diet tray assay
Format: in vivo
Details: 168 h, second instar larvae, 50 μg/cm^2 on artificial diet, 25° C., five to seven days, average of eight wells, read-out: CL % Control (or Mortality) rating
Property: mortality at 50 µg/cm2; scope: individual molecules

- molecule: "Cc1ccccc1N(C(=O)Nc1ccc(-c2ncn(-c3ccc(OC(F)(F)F)cc3)n2)cc1)C(N)=S"
  mortality at 50 µg/cm2: "50 to 100%"
- molecule: "FC(F)(F)Oc1ccc(-n2cnc(-c3ccc(NC(=S)Nc4ncccc4-c4cccnc4)cc3)n2)cc1"
  mortality at 50 µg/cm2: "50 to 100%"
- molecule: "Cc1cc(C)cc(NC(=O)NCCCc2ccc(-c3ncn(-c4ccc(OC(F)(F)F)cc4)n3)cc2)c1 [P1]"
  mortality at 50 µg/cm2: "0%"
- molecule: "CCc1cccc(C)c1NC(=O)NCCCc1ccc(-c2ncn(-c3ccc(OC(F)(F)F)cc3)n2)cc1"
  mortality at 50 µg/cm2: "0%"
- molecule: "FC(F)(F)Oc1ccc(-n2cnc(-c3ccc(NC(=S)Nc4ccccc4-c4ccco4)cc3)n2)cc1"
  mortality at 50 µg/cm2: "50 to 100%"

GET /values?readout=mortality at 50 µg/cm2&item= CC(C)c1cccc(NC(=O)NCCCc2ccc(-c3ncn(-c4ccc(OC(F)(F)F)cc4)n3)cc2)c1 [P2] 0%

# query: mortality at 50 µg/cm2 of entry `CCc1ccccc1-c1cccnc1NC(=O)Nc1ccc(-c2ncn(-c3ccc(OC(F)(F)F)cc3)n2)cc1` 50 to 100%

Fill blank: measured mortality at 50 µg/cm2 of the molecule `CC(C)c1ccccc1-c1ccccc1NC(=O)Nc1ccc(-c2ncn(-c3ccc(OC(F)(F)F)cc3)n2)cc1` is ____. 50 to 100%

Dear colleague, I am looking for the recorded mortality at 50 µg/cm2 of the following molecule: `Cc1ccccc1-c1cccc(NC(=O)NCCCc2ccc(-c3ncn(-c4ccc(OC(F)(F)F)cc4)n3)cc2)c1` 0%

Which mortality at 50 µg/cm2 is reported for this molecule? `Cc1ccc(C)n1-c1ccccc1NC(=S)Nc1ccc(-c2ncn(-c3ccc(OC(F)(F)F)cc3)n2)cc1` 50 to 100%

Would you kindly share the measured mortality at 50 µg/cm2 for `O=C(NCCCCc1ccc(-c2ncn(-c3ccc(OC(F)(F)F)cc3)n2)cc1)Nc1ccccc1Cl` ? 0%

Endpoint output: mortality at 50 µg/cm2 of `CC(C)c1ccccc1-c1ccccc1NC(=S)Nc1ccc(-c2ncn(-c3ccc(OC(F)(F)F)cc3)n2)cc1` . Value? 50 to 100%

Quick check: mortality at 50 µg/cm2 of `O=C(NCc1ccc(-c2ncn(-c3ccc(OC(F)(F)F)cc3)n2)cc1)Nc1ccccc1Cl` ? 0 to 50%

For `CC(C)(C)c1ccccc1NC(=O)Nc1ccc(-c2ncn(-c3ccc(OC(F)(F)F)cc3)n2)cc1` , what is its reported mortality at 50 µg/cm2? 50 to 100%

Entry `CC(C)c1ccccc1NC(=O)Nc1ccc(-c2ncn(-c3ccc(OC(F)(F)F)cc3)n2)cc1` has what mortality at 50 µg/cm2? 50 to 100%

I have this molecule here, `FC(F)(F)Oc1ccc(-n2cnc(-c3ccc(NC(=S)Nc4ccccc4-n4cccc4)cc3)n2)cc1` , and I need its recorded mortality at 50 µg/cm2. 50 to 100%
